All figures here come from paper PMC5564600.

Target: panel of 442 kinases (Homo sapiens)
Construct: purchased Ambit Biosciences (scanMAXX KINOMEscan)
Assay: biochemical
Type: binding
Details: kinase FRK; 1 µM; read-out: % of control at 1 µM
Known remaining activity at 1 µM of a selection of compounds
Give the number; % is assumed, so skip it.

INSERT INTO results (compound, units_label, recorded_result) VALUES
  ('COc1ncc(-c2ccc3nccc(-c4ccnnc4)c3c2)cc1NS(=O)(=O)c1ccc(F)cc1F [Omipalisib]', '%', 98),
  ('Nc1cc(C(F)(F)F)c(-c2cc(N3CCOCC3)nc(N3CCOCC3)n2)cn1 [Buparlisib]', '%', 100),
  ('FC(F)c1nc2ccccc2n1-c1nc(N2CCOCC2)nc(N2CCOCC2)n1 [ZSTK474]', '%', 83);

With those in mind, consider the next compound.
Inquiry: // Input: Cn1c(=O)n(-c2ccc(C(C)(C)C#N)cc2)c2c3cc(-c4cnc5ccccc5c4)ccc3ncc21 [Dactolisib] . Output its remaining activity at 1 µM only.
Reply text: 85

----------
Known remaining activity at 1 µM of a selection of molecules
Target: panel of 442 kinases (Homo sapiens, UniProt Q9P2K8, S808G)
Construct: purchased Ambit Biosciences (scanMAXX KINOMEscan)
Sequence (Q9P2K8 whole entry S808G): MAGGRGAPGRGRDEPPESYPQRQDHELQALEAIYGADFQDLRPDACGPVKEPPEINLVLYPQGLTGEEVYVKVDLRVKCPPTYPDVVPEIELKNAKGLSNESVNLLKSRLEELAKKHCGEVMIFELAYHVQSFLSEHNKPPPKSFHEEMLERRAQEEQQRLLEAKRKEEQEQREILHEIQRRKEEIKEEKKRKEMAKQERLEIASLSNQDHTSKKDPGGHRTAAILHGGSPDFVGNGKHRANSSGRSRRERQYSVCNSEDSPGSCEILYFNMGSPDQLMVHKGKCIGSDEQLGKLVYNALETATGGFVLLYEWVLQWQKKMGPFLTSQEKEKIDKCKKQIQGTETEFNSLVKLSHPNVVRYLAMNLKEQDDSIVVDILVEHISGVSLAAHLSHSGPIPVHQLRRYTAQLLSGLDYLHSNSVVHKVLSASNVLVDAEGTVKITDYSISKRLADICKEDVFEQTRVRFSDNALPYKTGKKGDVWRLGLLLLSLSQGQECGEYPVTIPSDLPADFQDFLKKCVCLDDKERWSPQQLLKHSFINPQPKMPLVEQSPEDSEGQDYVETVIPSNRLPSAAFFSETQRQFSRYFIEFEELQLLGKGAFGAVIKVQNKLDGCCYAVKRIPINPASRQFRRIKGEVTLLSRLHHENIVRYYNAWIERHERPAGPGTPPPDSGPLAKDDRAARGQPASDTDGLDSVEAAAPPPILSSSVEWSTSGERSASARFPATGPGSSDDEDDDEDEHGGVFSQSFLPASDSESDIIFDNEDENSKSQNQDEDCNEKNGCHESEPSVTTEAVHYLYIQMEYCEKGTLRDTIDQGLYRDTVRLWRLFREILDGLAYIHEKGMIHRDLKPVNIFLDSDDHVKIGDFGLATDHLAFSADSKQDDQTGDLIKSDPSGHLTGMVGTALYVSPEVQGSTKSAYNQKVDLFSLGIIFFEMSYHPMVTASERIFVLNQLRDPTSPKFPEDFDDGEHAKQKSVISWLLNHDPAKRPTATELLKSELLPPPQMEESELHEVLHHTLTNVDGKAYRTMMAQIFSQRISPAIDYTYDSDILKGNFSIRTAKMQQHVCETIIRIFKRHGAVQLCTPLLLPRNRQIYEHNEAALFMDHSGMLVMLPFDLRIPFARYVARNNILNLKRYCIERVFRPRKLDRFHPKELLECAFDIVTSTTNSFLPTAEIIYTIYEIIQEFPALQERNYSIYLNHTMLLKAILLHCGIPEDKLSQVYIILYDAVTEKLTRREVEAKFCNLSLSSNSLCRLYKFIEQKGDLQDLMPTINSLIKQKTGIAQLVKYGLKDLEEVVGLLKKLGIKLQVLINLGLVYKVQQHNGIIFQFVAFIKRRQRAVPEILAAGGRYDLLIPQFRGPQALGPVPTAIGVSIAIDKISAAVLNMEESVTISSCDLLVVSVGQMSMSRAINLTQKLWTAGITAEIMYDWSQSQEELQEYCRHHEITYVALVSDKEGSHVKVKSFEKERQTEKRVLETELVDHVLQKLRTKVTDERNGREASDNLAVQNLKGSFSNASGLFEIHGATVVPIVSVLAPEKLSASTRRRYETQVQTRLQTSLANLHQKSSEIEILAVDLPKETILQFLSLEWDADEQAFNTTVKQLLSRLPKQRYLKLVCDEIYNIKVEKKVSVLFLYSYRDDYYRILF
Assay: biochemical
Format: binding
Conditions: kinase GCN2(Kin.Dom.2,S808G); 1 µM; read-out: % of control at 1 µM
Give the number; % is assumed, so skip it.

INSERT INTO results (smiles, system, reported_metric, recorded_result) VALUES
  ('COc1ncc(-c2ccc3nccc(-c4ccnnc4)c3c2)cc1NS(=O)(=O)c1ccc(F)cc1F', 'panel of 442 kinases (Homo sapiens, UniProt Q9P2K8, S808G)', 'remaining activity at 1 µM', 100),
  ('FC(F)c1nc2ccccc2n1-c1nc(N2CCOCC2)nc(N2CCOCC2)n1', 'panel of 442 kinases (Homo sapiens, UniProt Q9P2K8, S808G)', 'remaining activity at 1 µM', 89),
  ('Nc1cc(C(F)(F)F)c(-c2cc(N3CCOCC3)nc(N3CCOCC3)n2)cn1', 'panel of 442 kinases (Homo sapiens, UniProt Q9P2K8, S808G)', 'remaining activity at 1 µM', 100);

With those in mind, consider the next molecule.
Inquiry: // Input: "Cn1c(=O)n(-c2ccc(C(C)(C)C#N)cc2)c2c3cc(-c4cnc5ccccc5c4)ccc3ncc21" . Output its remaining activity at 1 µM only.
Reply text: 87

----------
Known remaining activity at 1 µM of a selection of compounds
Target: panel of 442 kinases (Homo sapiens, UniProt P16234)
Construct: purchased Ambit Biosciences (scanMAXX KINOMEscan)
Sequence (P16234 24-1089): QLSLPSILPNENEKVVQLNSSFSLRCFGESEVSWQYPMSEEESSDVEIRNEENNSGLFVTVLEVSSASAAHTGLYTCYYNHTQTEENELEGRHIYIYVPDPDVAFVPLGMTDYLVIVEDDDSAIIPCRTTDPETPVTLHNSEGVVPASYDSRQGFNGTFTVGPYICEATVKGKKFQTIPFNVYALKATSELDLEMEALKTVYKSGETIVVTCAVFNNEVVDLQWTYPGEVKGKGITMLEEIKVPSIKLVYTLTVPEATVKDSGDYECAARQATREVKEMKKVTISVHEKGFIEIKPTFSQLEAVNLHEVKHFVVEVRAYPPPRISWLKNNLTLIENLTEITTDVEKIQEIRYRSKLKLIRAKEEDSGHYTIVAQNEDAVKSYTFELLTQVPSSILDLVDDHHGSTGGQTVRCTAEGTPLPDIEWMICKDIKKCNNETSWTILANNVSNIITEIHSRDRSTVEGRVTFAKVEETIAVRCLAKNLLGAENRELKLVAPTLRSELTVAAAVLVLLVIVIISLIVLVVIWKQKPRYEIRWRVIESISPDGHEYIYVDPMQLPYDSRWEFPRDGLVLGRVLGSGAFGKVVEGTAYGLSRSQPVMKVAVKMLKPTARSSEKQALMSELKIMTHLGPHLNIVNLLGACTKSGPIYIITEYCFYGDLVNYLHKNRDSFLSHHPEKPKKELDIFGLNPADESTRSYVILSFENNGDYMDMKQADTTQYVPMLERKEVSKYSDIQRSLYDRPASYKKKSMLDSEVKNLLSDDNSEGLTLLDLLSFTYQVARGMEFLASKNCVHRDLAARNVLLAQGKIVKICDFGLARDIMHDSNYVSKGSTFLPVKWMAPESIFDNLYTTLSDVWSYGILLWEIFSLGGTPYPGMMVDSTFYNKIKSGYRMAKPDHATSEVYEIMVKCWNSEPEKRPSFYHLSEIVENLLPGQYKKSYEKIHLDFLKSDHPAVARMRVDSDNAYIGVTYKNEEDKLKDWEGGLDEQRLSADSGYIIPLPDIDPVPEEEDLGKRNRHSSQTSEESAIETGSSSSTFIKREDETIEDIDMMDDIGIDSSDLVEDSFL
Assay: biochemical
Assay type: binding
Conditions: kinase PDGFRA; 1 µM; read-out: % of control at 1 µM
Give the number; % is assumed, so skip it.

Examples with answers:
INSERT INTO measurements (smiles, units_label, recorded_result) VALUES
  ('Nc1cc(C(F)(F)F)c(-c2cc(N3CCOCC3)nc(N3CCOCC3)n2)cn1', '%', 100),
  ('COc1ncc(-c2ccc3nccc(-c4ccnnc4)c3c2)cc1NS(=O)(=O)c1ccc(F)cc1F', '%', 100),
  ('FC(F)c1nc2ccccc2n1-c1nc(N2CCOCC2)nc(N2CCOCC2)n1', '%', 85);

With those in mind, consider the next compound.
Inquiry: // Input: "Cn1c(=O)n(-c2ccc(C(C)(C)C#N)cc2)c2c3cc(-c4cnc5ccccc5c4)ccc3ncc21" . Output its remaining activity at 1 µM only.
Reply text: 100
